These data points were gathered from PubChem BioAssay.

# maps each entry to its viability
test: H69AR cell proliferation blockers – human, duplicate replicates, primary screen (AID 580); details: H69AR lung tumor cells viability, ATP luminescence, 72 h; at 10 µM; stronger effect = lower value;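 also: 100% = mean luminescence of untreated wells and 0% = no signal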
I only need the number, in %, no unit after it.

COc1ccc(C(=O)c2ccc(OC)c(N)c2)cc1N; 16.9
CCc1ccc(C(=O)NC2CCCCC2)s1; 109
O=C1c2ccccc2C(Nc2ccc3c(c2)OCCO3)N1Cc1ccc2c(c1)OCO2 (centres undefined); 86.4
COc1ccc(C(c2sc3nc(C)nn3c2O)N2CCCCC2)cc1 (centres undefined); 81.8

Data request, read-out viability, for COc1ccc(S(=O)(=O)Cc2ccc(C(=O)NCCc3ccc(S(N)(=O)=O)cc3)o2)cc1
91.7

Subsequent entry: Cc1cccc(NC(=O)CS(=O)(=O)c2cn(C)c3ccccc23)c1
90.6

Subsequent entry: CC(=O)N1CCc2c(sc(NC(=O)c3ccc(S(=O)(=O)N(C)C)cc3)c2C#N)C1
87.5

Subsequent entry: Cc1ccc(-n2ncc3c(=O)[nH]c(SC(C)C)nc32)cc1
80.1

Subsequent entry: O=C(Nc1ccncc1)c1cc2ccccc2o1
105

Subsequent entry: COc1ccc(NC(=O)CSc2nnc(Cc3cccn3C)n2-c2ccc(F)cc2)cc1OC
94.7

Subsequent entry: COC(=O)CSC1=C(C#N)C(c2ccc(F)cc2)CC(=O)N1 (centres undefined)
80.8

Subsequent entry: Cc1ccc(OCC(O)CN2C(=O)NC(C)(C)C2=O)cc1C (centres undefined)
102

Subsequent entry: O=C(NCCN1C(=O)C2C3C=CC(C3)C2C1=O)N1CCOCC1 (centres undefined)
93.7

Subsequent entry: CCOC(=O)N1CCN(C(=O)CN(C2CCCCC2)S(=O)(=O)c2ccc(F)cc2)CC1
97.7

Subsequent entry: O=C1c2ccccc2C(=O)N1C/C=C/CN1C(=O)c2ccccc2C1=O
82.8

Subsequent entry: Cc1cccc(NC(=O)c2ccccc2O)c1C
93.3

Subsequent entry: O=C(NCCN1CCOCC1)c1ccc2c(c1)N(Cc1ccccc1F)C(=O)CS2
92.6

Subsequent entry: CCOC(=O)c1ccccc1NC(=O)CSc1nccn1C
108

Subsequent entry: CN(CCNS(=O)(=O)c1ccc2c(c1)oc(=O)n2C)Cc1ccccc1
98.1

Subsequent entry: CCCCOc1ccc(-c2ncc(Cl)cn2)cc1
93.9

Subsequent entry: COc1ccc(S(=O)(=O)NCC(c2cccnc2)N2CCN(C)CC2)cc1C (centres undefined)
91

Subsequent entry: CCOC(=O)C1=C(C)Nc2nnnn2C1c1ccc(OC)c(Br)c1 (centres undefined)
93.3

Subsequent entry: O=C(Cn1ncc2c1-c1ccccc1OC2)N1CCN(c2ccccn2)CC1
89.7

---

test: HUVEC growth inhibition – cell-based, human, primary screen (AID 575); settings: HUVEC proliferation, CellTiter-Glo luminescence, 72 h; at 10 µM; stronger effect = lower value;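 also: 100% = median of untreated cell wells with 0.1% DMSO on each plate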
The label is true for viability below 90% and false for viability equal to or exceeding 90%.

Reference set (3 entries):
CC(=O)Nc1ccc(S(=O)(=O)N2CCN(C(=O)CCC3CCCC3)CC2)cc1; false
O=C1CC(c2ccccc2)CC(O)=C1C=NCCN1CCOCC1 (centres undefined); true
COc1ccc(S(=O)(=O)Cc2ccc(C(=O)N3CCN(c4ccccc4)CC3)o2)cc1; false

is_below(viability, 90%) for COC(=O)CN1C(=O)CC(C)(C)S(=O)c2ccccc21 (centres undefined) ?
false

Subsequent entry: CCOC(=O)/C=C1\CC(=O)Nc2nonc2N1
false

Subsequent entry: CCCn1c(OC)nc2c1c(=O)n(C)c(=O)n2C
true

Subsequent entry: CCc1nnc(NC(=O)COC(=O)CN2C(=O)c3ccccc3C2=O)s1
false

Subsequent entry: CC1=C(C(=O)N2CCCCC2)C(c2cccs2)C2=C(CCCC2=O)N1 (centres undefined)
false

Subsequent entry: CCn1c(SCC(=O)Nc2cc(C)ccc2C)nc2c(c1=O)SC(C)C2 (centres undefined)
true

Subsequent entry: Cc1nc2c(-c3ccc(F)cc3)c(C)nn2c(C)c1CCC(=O)NC(C)CCc1ccco1 (centres undefined)
true

---

test: MRP1 drug-resistance reversers in H69AR cells – cell-based, doxorubicin co-treatment, pilot screen (AID 601); details: H69AR cells + 2 uM doxorubicin, CellTiter-Glo, 72 h; measured here: viability with 2 uM doxorubicin; at 10 µM; stronger effect = lower value
measured parameter: viability (%)
I only need the number, in %, no unit after it.

O=C(OCCN=C1NS(=O)(=O)c2ccccc21)C1CC(=O)N(c2ccc(Cl)cc2)C1 (stereo unspecified); 87.4
Cc1nn(C(=O)c2ccc3c(c2)OCO3)c(N)c1-c1ccccc1; 84.5

Data request, read-out viability, for Cc1cc(C)nc(NC(=O)c2cnc3sccn3c2=O)n1
105

Subsequent entry: C(/CCc1ccccc1)=N\n1cnnc1
89.1

Subsequent entry: CC(Oc1ccc2oc(-c3ccccc3)c(C(=O)O)c2c1)C(=O)O (stereo unspecified)
96.3

Subsequent entry: O=C(CSc1nnnn1-c1ccccc1)Nc1ccc(Cl)cc1
83.2

---

test: viability of PTEN-null HCT116 cells – cell-based, HCT116 clonal line, CellTiter-Glo, pilot screen (AID 824); settings: HCT116 PTEN-deleted viability, 60 h, at 10 µM, stronger effect = lower value;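 also: 0% = 20 µM Hyamine control and 100% = vehicle cell control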
Records with an inconclusive call do not appear.
measured parameter: viability (%)
I only need the number, in %, no unit after it.

# example entries with known answers
Fc1ccc(-c2nnc(-c3ccc(Cl)cc3Cl)o2)cc1; 64.2
CC1CCCCC1NC(=O)CCS(=O)(=O)c1cccc2nonc12 (stereo unspecified); 102
CCOC(=O)C1CCCN(C(=O)c2ccc(CS(=O)(=O)c3ccc(Br)cc3)o2)C1 (stereo unspecified); 98.6

Data request, read-out viability, for Cc1ccc(N(C)C(=O)N2CCN(S(=O)(=O)c3ccc(C)cc3)CC2)cc1
96.6

Subsequent entry: O=P(O)(CCc1ccccn1)CN1CCOCC1
92.5

Subsequent entry: O=C1CN(c2nc3ccccc3n3cnnc23)CC(=O)N1CCc1ccccc1
95.9

---

assay: S. cerevisiae growth inhibition in restrictive medium, OD615, pilot screen, restrictive growth control, yeast lifespan reduction project (AID 706); conditions: OD615, 48 h, at 10 µM, stronger effect = higher value;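 also: modified DeaD lifespan yeast strain shifted to restrictive glucose medium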
measured parameter: growth inhibition (%)
I only need the number, in %, no unit after it.

# example entries with known answers
COc1cccc2c(=O)c3c(cnn3C)n(C)c12; 48.7
O=c1c(-c2ccccc2)coc2c(CN3CCOCC3)c(O)ccc12; 4.11
COCCN(CCOC)Cc1c(C)[nH]c2ccccc2c1=O; -3.83

Data request, read-out growth inhibition, for CCC(=O)Oc1ccc2c(C)cc(=O)oc2c1C
7.31

Subsequent entry: Cc1nn(-c2ccccc2)c(Cl)c1C(=O)Nc1c(C)n(C)n(-c2ccccc2)c1=O
-23

Subsequent entry: O=C(COC(=O)C1CC(=O)N(C2CCCCC2)C1)c1ccc(F)cc1 (configuration not stated)
0.43

Subsequent entry: CCOC(=O)CSc1nnc(Cn2c(=O)sc3ccccc32)n1C
7.89

Subsequent entry: CSCCC(NC(=O)c1c(C)oc2c1CCCC2)C(=O)O (configuration not stated)
-12.1

Subsequent entry: Cc1cc(Oc2ccccc2)nc2ccc(O)cc12
3.26

Subsequent entry: CCOc1ccccc1C1C(C(=O)Nc2ccc(OC)cc2)=C(C)Nc2nc(CCCO)nn21 (configuration not stated)
-7.01

Subsequent entry: O=C(Cn1cnc2c(nnn2Cc2ccc(Cl)cc2)c1=O)N1CCN(c2ccccc2)CC1
-12.6

Subsequent entry: CCCCOC(=O)c1[nH]c2c(c1C)C(=O)CC(c1cc(OC)c(OC)c(OC)c1)C2 (configuration not stated)
-18.8

---

test: yeast transport mutant growth inhibition pilot in 384-well plates, post-Golgi transport modulator project (AID 636); details: absorbance 615 nm, about 18 h, stronger effect = higher value
# maps each entry to its inhibition
I only need the number, in %, no unit after it.

# example entries with known answers
CCOC(=O)N1CCC(Nc2nc3ccccc3n3cnnc23)CC1; -0.13
COc1cc(C(=O)N2c3ccccc3CC2C)cc(OC)c1OC (configuration not stated); -4.59
CCOC(=O)c1cc(NC(=O)SCC(=O)O)c(C)nc1C; 2.34
CC(=O)N(c1ccc(Br)cc1)C1C=CS(=O)(=O)C1 (configuration not stated); -5.33
COc1cc(OC)c2c(c1)OC(c1ccc(OC)c(OC)c1)C(O)C2=O (configuration not stated); -2.67
C=C(C)c1cccc(C(C)(C)NC(=O)NCC2CCCO2)c1 (configuration not stated); 0.77
CC1CCC(NC(=O)Cn2ncc3ccccc32)CC1 (configuration not stated); -3.47
COc1ccccc1NC1=C(C)C(=O)CC1; -7.43

Data request, read-out inhibition, for Cc1cc(C)c2c(=O)n(CC(=O)N3CCC(Cc4ccccc4)CC3)sc2n1
-6.53

Subsequent entry: COc1ccc(S(=O)(=O)Cc2ccc(C(=O)N3CCOCC3)o2)cc1
0

Subsequent entry: COc1cccc(C2C(C(N)=O)=C(C)Nc3nc(-c4ccccc4Cl)nn32)c1 (configuration not stated)
-5.33

Subsequent entry: Cc1cccc(-n2nc3c(c2NC(=O)CCC2CCCCC2)CS(=O)C3)c1C (configuration not stated)
-4.13

Subsequent entry: CCOC(=O)c1ccccc1NC(=O)c1cccnc1
1.95

Subsequent entry: CCCC(=O)Nc1nc2ccc(S(N)(=O)=O)cc2s1
-3.33

Subsequent entry: COc1cccc(-c2cc(C(F)(F)F)nc(NCc3ccco3)n2)c1
-5.27

Subsequent entry: Cc1sc2nc(SCC(=O)NCCO)n(C)c(=O)c2c1C
0.77

Subsequent entry: CCOc1ccc(N(CC(=O)Nc2cccc(OC)c2)S(=O)(=O)c2c(C)noc2C)cc1
-4.4
